# System: NHLF cells
# protocol: LDH cytotoxicity assay in NHLF
# Type: cell-based
# runConditions: Homo sapiens, read-out: LDH: EC 50
measuredProperty: pEC50
Note on units: pEC50 is unitless, being -log10 of a concentration expressed in mol/L.

// lookup pEC50 | system=NHLF cells | key= COC(=O)c1ccc2c(c1)NC(=O)/C2=C(\Nc1ccc(N(C)C(=O)CN2CCN(C)CC2)cc1)c1ccccc1 [nintedanib]
3.66

----------
# Tested on: PC3 cells
# protocol: Caspase-3/7 activity (apoptosis) in PC3 cells
# Type: cell-based, human
# runConditions: Homo sapiens, PC-3; PC3, Caspase-3/7 activity
measuredProperty: EC50 (µM)
Please reply with the bare figure in µM and do not write the unit itself.

// lookup EC50 | system=PC3 cells | key= COc1ccc(-c2cc(=O)c3c(O)c(OC)c(OCCN4CCNC(=O)C4)cc3o2)cc1OC [ONG41008]
20.4

----------
# Test system: MCF7
# protocol: CCK-8 cell proliferation assay in MCF7 cells
# Assay type: cell-based
# runConditions: Homo sapiens; MCF7, CCK-8, 72 hours
measuredProperty: pIC50
Note on units: pIC50 is unitless, being -log10 of a concentration expressed in mol/L.

// lookup pIC50 | system=MCF7 | key= `COc1ccc(-c2cc(=O)c3c(O)c(OC)c(OCCN4CCNC(=O)C4)cc3o2)cc1OC`
4.81
